- MEASUREMENT_TARGET: UniProt P17706
- Sequence (P17706 whole entry): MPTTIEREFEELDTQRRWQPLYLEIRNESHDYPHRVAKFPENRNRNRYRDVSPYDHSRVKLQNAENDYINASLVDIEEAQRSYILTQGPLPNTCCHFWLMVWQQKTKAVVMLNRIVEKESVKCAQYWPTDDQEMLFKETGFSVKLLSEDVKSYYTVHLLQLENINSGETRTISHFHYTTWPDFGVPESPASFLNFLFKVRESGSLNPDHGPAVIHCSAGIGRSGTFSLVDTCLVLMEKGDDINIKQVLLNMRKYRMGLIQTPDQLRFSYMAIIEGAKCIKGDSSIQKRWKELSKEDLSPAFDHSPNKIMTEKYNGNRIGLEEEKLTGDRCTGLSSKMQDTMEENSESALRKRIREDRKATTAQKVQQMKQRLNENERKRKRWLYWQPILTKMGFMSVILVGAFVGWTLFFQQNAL
- PROTOCOL_NOTES: Inhibition of TCPTP (unknown origin)
- STATED_CONDITIONS: read-out: IC50

{"MOLECULE": "O=C(OC1CS[S+]([O-])C1)c1cc2ccccc2[nH]1 (configuration not stated)", "IC50 / µM": 52.6}
{"MOLECULE": "O=C(OC1CSSC1)c1ccc([N+](=O)[O-])cc1", "IC50 / µM": 37.4}
{"MOLECULE": "O=C(OC1CSSC1)c1cc2ccccc2[nH]1", "IC50 / µM": 35.8}
{"MOLECULE": "O=C(OC1CSSC1)c1ccc(I)cc1", "IC50 / µM": 34.1}
{"MOLECULE": "O=C(OC1CSSC1)c1ccc(Br)cc1", "IC50 / µM": 34}
{"MOLECULE": "O=C(OC1CSSC1)c1cc([N+](=O)[O-])cc([N+](=O)[O-])c1", "IC50 / µM": 27.3}
{"MOLECULE": "O=C(OC1CS[S+]([O-])C1)c1ccc(I)cc1 (configuration not stated)", "IC50 / µM": 33}
